molecular target: Recombinant human FAP (R&D systems, #3715-SE) (human, UniProt Q12884 26-760); experiment: cell-based or functional assay
Sequence (Q12884 26-760 limits assumed): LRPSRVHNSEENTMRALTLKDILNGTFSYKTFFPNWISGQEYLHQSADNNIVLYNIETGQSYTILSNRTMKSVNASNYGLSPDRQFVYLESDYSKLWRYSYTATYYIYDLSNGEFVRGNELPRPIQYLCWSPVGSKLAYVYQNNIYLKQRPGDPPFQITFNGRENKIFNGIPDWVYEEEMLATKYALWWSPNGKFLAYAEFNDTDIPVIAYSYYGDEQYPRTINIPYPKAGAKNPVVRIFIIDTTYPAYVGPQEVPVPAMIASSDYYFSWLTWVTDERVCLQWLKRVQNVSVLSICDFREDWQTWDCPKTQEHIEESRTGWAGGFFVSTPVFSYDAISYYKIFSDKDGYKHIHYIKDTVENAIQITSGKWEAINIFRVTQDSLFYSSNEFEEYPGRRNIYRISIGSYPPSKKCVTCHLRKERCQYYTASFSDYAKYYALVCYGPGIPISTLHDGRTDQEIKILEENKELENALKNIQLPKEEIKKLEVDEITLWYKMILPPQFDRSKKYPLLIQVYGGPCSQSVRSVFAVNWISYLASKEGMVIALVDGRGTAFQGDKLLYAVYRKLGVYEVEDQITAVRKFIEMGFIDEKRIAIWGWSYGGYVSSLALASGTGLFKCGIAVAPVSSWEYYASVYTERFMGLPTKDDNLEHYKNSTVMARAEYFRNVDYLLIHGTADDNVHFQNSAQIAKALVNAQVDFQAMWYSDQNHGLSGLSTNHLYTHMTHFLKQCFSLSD
Numbered stars: 1 amine (or outer) side, 2 acyl side, 3 side chain; on linkers, the order of the positions; unused ones are H or OH. Bridge positions count the residues as written; N and C are the ends. Square brackets hold non-standard residues; d marks the D form. Primed or numbered codes have the meaning given here. * marks the point of attachment. Ttds(6) = 1,13-Diamino-4,7,10-trioxatridecan-succinamic acid, O=C(CCC(=O)[*:2])NCCCOCCOCCOCCCN[*:1]; 3MeBn = 3-Methylbenzylidene (m-xylylene thioether bridge from α,α′-dibromo-m-xylene); N4Ac = 6-Carboxy-1,4,8,11-tetraazaundecane, an N4-chelator, NCCNCC(CNCCN)C(=O)*
Quantity Measured: pIC50 Category (Activity)

Would you kindly share the measured pIC50 Category (Activity) for N4Ac-[Ttds(6)]ECPPTEFC-OH (linker 3-9 via 3MeBn, also called 3BP-4233) [N4Ac-Ttds-Glu-[Cys-(3MeBn)-Pro-Pro-Thr-Glu-Phe-Cys]-OH] ?
≤ 6 pIC50
